SYSTEM_TESTED: TSPO (Rattus norvegicus (Rat))
Sequence (P16257 whole entry, looked up): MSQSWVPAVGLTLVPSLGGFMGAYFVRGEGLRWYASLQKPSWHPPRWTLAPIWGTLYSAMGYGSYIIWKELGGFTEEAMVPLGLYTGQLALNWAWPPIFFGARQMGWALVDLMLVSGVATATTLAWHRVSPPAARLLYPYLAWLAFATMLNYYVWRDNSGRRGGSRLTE
TEST_DESCRIPTION: In vitro binding affinity, 3H-PK11195 displacement in kidney mitochondria
SETUP_CONDITIONS: 0.6 nM 3H-PK11195, mitochondria from kidneys of male Wistar rats, 90 min at 4° C.
ASSAY_READOUT: Ki (nM)

{"columns": ["MOLECULE", "ASSAY_READOUT", "RESULT"],
 "data": [
  ["CCN(CC)C(=O)C(Oc1cccnc1-n1cccc1)c1ccc(OC)cc1 (stereo not shown)", "Ki", 4],
  ["CCN(CC)C(=O)Cc1c(-c2ccc(Br)cc2)nc2c(C)cc(C)nn12", "Ki", 0.97],
  ["CCN(CC)C(=O)C(Oc1ccc(Cl)cc1-n1cccc1)c1ccc(OC)cc1 (stereo not shown)", "Ki", 5.7],
  ["CCN(CC)C(=O)Cc1c(-c2ccc(C)cc2)nc2c(C)cc(C)nn12", "Ki", 0.46],
  ["CCN(CC)C(=O)C(Oc1ccccc1-n1cccc1)c1ccc(OC)cc1 (stereo not shown)", "Ki", 5],
  ["CCN(CC)C(=O)Cc1c(-c2ccc(Cl)cc2)nc2c(C)cc(C)nn12", "Ki", 0.45],
  ["CCN(CC)C(=O)Cc1c(-c2ccc(F)cc2)nc2c(C)cc(C)nn12", "Ki", 2.4]
]}
